Assay: gradient 5% acetonitrile 3 min, to 50% in 2 min, to 85% in 15 min, held 3 min, 100 µL/min
Conditions: column: Zorbax Extend-C18 2.1 x 50 mm; eluents: water / acetonitrile, 0.1% formic acid
measurement type: RP-LC retention time (s)

Cc1nn(C(C)C(=O)NCCCN2CCC(N3CCCCC3)CC2)c(=O)c2c1sc1ccccc12 (stereo not given)    592
O=C(NCC(F)(F)F)C1CN(C(=O)c2ccc(F)c(F)c2)C1    667
CSc1cccc(NC(=O)COc2cccc(-c3nnc4n3CCCC4)c2)c1    728
O=C(Nc1ccc(C(F)(F)F)cc1)c1cn(CC(O)c2ccccc2)nn1 (stereo not given)    581
CCS(=O)(=O)N1CCC[C@@H]2CN3CCc4cc(OC)ccc4[C@@H]3C[C@@H]21    670
COc1cccc(CNC(=O)C2(C)CCCN(C(=O)NCCc3ccccc3)C2)c1 (stereo not given)    855
CCN1CCC(N(Cc2cccs2)C(=O)Nc2ccc(Cl)cc2)CC1    682
O=C(C1CC1)N1CCCN(c2ccc([N+](=O)[O-])cc2)CC1    688
Oc1ccc(-c2csc(Nc3ccccn3)n2)cc1    646
CCc1ccc(Oc2cc(N3CCC(C(=O)NCC(C)c4ccccc4)CC3)ncn2)cc1 (stereo not given)    1090
CCOC(=O)c1[nH]c(C)c(CCC(=O)NCc2ccc3c(c2)OCO3)c1C    780
CCc1cccc(C)c1NC(=O)Cn1c(=O)n(-c2ccc(F)cc2)c(=O)c2c1cc(C)n2C    850
Cc1ccccc1-c1csc2c(=O)n(CC(=O)OC(C)(C)C)cnc12    1060
COC1CCC12CCN(Cc1cccc(C#N)c1)CC2 (stereo not given)    597
CCN1C[C@]2(OC(=O)c3ccccc3NC(C)=O)CCC(OC)[C@@]34C5C[C@@H]6C(OC)C[C@](O)([C@@H](CC23)[C@@H]14)C5(O)[C@H]6OC (stereo not given in full)    760
COCC(C)(O)CNC(=O)Nc1cccs1 (stereo not given)    594
CCOc1ccc(-c2nc(C3CC(=O)N(c4ccc(F)cc4)C3)no2)cc1 (stereo not given)    1010
COc1ccc(-c2noc(-c3nn(-c4ccc(F)c(F)c4)ccc3=O)n2)cc1    914
CCn1c(N2CCC(C(=O)NC3CCCCCC3)CC2)cc(=O)n(C)c1=O    855
CCC(C)NC(=O)CSc1cc(N2CCN(c3ccc(OC)cc3)CC2)ncn1 (stereo not given)    775

* * *

Assay: gradient 5% acetonitrile 3 min, to 50% in 2 min, to 85% in 15 min, held 3 min, 100 µL/min
Conditions: column: Zorbax Extend-C18 2.1 x 50 mm; eluents: water / acetonitrile, 0.1% formic acid
measurement type: RP-LC retention time (s)

Cc1[nH]c(C(=O)N2CCC(CC(=O)NCCCOC(C)C)CC2)c(C)c1C    715
CCCN(C(=O)c1ccc(Br)cc1)C1(C(=O)NCc2ccccc2)CCN(C(C)=O)CC1    626
O=C(CC1CCN(C(=O)C2CCCCC2)CC1)NCCc1c[nH]c2ccc(Cl)cc12    871
Cc1cc(C(=O)Nc2nc(-c3ccc(C)c(C)c3)c(C)s2)no1    1120
Cc1ccccc1NC(=O)CN1C(=O)NC2(CCCCC2)C1=O    730
O=C(CCc1c[nH]c2ccccc12)N1[C@H]2CC[C@@H]1c1cnc(-c3ccccc3)nc1C2    884

1 = COC(=O)c1[nH]c(C)c(CN(C)C(=O)c2ccc(Br)cc2)c1C
2 = CN(C)C(=O)c1[nH]c2ccccc2c1N1CCCC1=O
Which entry has a larger number for RP-LC retention time, 1 or 2 ? When you have decided, please share the label of that item.
1

* * *

Assay: gradient 5% acetonitrile 3 min, to 50% in 2 min, to 85% in 15 min, held 3 min, 100 µL/min
Details: column: Zorbax Extend-C18 2.1 x 50 mm; eluents: water / acetonitrile, 0.1% formic acid
measurement type: RP-LC retention time (s)

Cc1noc(-c2ccc(-n3cnc(C(=O)NCC4CC4)c3)nc2)n1    727
Cn1cnc2cc(CNC(=O)c3ccc4cc[nH]c4c3)ccc21    603
CCc1ccccc1S(=O)(=O)N1CCC(C(=O)NCc2csc(-c3cccs3)n2)CC1    950

I = COc1ccc(C)cc1NC(=O)CN1CCN(Cc2ccccc2)C(=O)C1=O
II = Cc1ccc(NS(=O)(=O)c2c(C)nc3sc4cc(C)ccc4n3c2=O)cc1
Hi, I'm comparing two records. Which one has the lower RP-LC retention time, I or II ? When you have decided, please share the label of that item.
I
(I: 684 s, II: 1160 s)

A = O=S(=O)(c1ccccc1)N1CCC(n2cnnc2-c2ccccc2)CC1
B = O=C(NCc1ccc(C(F)(F)F)cc1)c1c(O)c2cccnc2n(-c2ccccc2)c1=O
Which entry has a larger number for RP-LC retention time, A or B ? When you have decided, please share the label of that item.
B
(B: 1230 s, A: 749 s)

* * *

Assay: gradient 5% acetonitrile 3 min, to 50% in 2 min, to 85% in 15 min, held 3 min, 100 µL/min
Conditions: column: Zorbax Extend-C18 2.1 x 50 mm; eluents: water / acetonitrile, 0.1% formic acid
measurement type: RP-LC retention time (s)

Answered examples (4):
COc1ccc(NC(=O)NC2CCN(c3ccc(C)c(C)c3)C2=O)cc1F (stereo not given)    800
O=C(NCCn1c(-c2ccc(F)cc2)nc2cccnc21)Nc1ccc2c(c1)OCCO2    682
COc1ccc2c(c1)C1(CCN(C(=O)C(C)C)C1)C(=O)N2 (stereo not given)    646
CCOC(=O)N1CCN(c2ncc(S(=O)(=O)c3ccc(C(C)C)cc3)c(N)n2)CC1    1030

I = CC(C)(C)OC(=O)N1CCN(CCNC(=O)CSc2nc3ccccc3o2)CC1
II = CCOC(=O)C(NC(=O)C1CCCN1C(=O)OCc1ccccc1)C(=O)OCC (stereo not given)
Which entry has a larger number for RP-LC retention time, I or II ? When you have decided, please share the label of that item.
II

1 = COCCCNC(=O)C1CCN(c2cncnc2N2CCCCC2)CC1
2 = CCN(CC)S(=O)(=O)c1ccc2c(c1)N(CC(=O)NCCCOC(C)C)C(=O)C1CCCCN21 (stereo not given)
Which entry has a larger number for RP-LC retention time, 1 or 2 ? When you have decided, please share the label of that item.
2

* * *

Experiment: gradient 5% acetonitrile 3 min, to 50% in 2 min, to 85% in 15 min, held 3 min, 100 µL/min
Conditions: column: Zorbax Extend-C18 2.1 x 50 mm; eluents: water / acetonitrile, 0.1% formic acid
measurement type: RP-LC retention time (s)

Answered examples (4):
Cc1nc(-c2noc(-c3cccnc3)n2)cn1CC(=O)NC(C)c1ccccc1 (centres undefined)    684
Fc1ccc(OCc2nc(-c3cccc(-c4csc(C5CC5)n4)c3)no2)cc1    1290
CC1(C(=O)NCc2ccccc2)CN(S(C)(=O)=O)CC(=O)N1c1ccc(F)cc1 (centres undefined)    750
O=C1COc2cc(Cl)ccc2N1Cc1nc(-c2ccc(F)c(Br)c2)no1    1210

P = COC(=O)C1C(=O)C2=C(CC1C)NC(C)=C(C(=O)OC(C)C)C2c1ccccc1OC (centres undefined)
Q = O=C1CCC(C(=O)N2C[C@@H](COCC3CC3)[C@H](c3ccccn3)C2)=NN1
Which entry has a larger number for RP-LC retention time, P or Q ? When you have decided, please share the label of that item.
P

1 = COc1ccccc1-n1cc(-c2ccccc2)c2c(NCCN(C)C)ncnc21
2 = CCCOc1nc2ccccc2nc1N1CCCC(C(=O)Nc2ccccc2OC)C1 (centres undefined)
Hi, I'm comparing two records. Which one has the lower RP-LC retention time, 1 or 2 ? When you have decided, please share the label of that item.
1

* * *

Experiment: gradient 5% acetonitrile 3 min, to 50% in 2 min, to 85% in 15 min, held 3 min, 100 µL/min
Details: column: Zorbax Extend-C18 2.1 x 50 mm; eluents: water / acetonitrile, 0.1% formic acid
measurement type: RP-LC retention time (s)

A = CN(C)C(=O)c1cc2c(s1)CCC(C(=O)NCc1nc3ccccc3n1C)C2 (stereo unspecified)
B = COc1ccc(-c2noc(-c3nc(-c4ccc(N(C)C)cc4)no3)n2)cc1OC
Which entry has a larger number for RP-LC retention time, A or B ? When you have decided, please share the label of that item.
B
(B: 1230 s, A: 595 s)

I = CCNC(=O)Nc1cccnc1N1CCCCC1
II = COc1ccc(S(=O)(=O)N2CCCC(C(=O)NCc3ccccn3)C2)cc1Cl (stereo unspecified)
Hi, I'm comparing two records. Which one has the lower RP-LC retention time, I or II ? When you have decided, please share the label of that item.
I
(I: 577 s, II: 838 s)

I = CN1CCN(S(=O)(=O)c2ccc(Cl)c3ccccc23)CC1
II = Cc1ccc(-n2c(N3CCCC(C(=O)Nc4ccc(C)c(Cl)c4)C3)nc3ccsc3c2=O)cc1 (stereo unspecified)
Which entry has a larger number for RP-LC retention time, I or II ? When you have decided, please share the label of that item.
II
(II: 1160 s, I: 580 s)
